Quick reference for TGI among some compounds
test system: SR leukemia; assay: NCI tumour cell line growth inhibition, 48 h

compound: Cc1c(-c2ccccc2)c(C#N)c2nnn(C)c(=O)n12
TGI: > 100 µM

compound: CC(=O)c1sc2n(C)c(=O)c3ccccc3[n+]2c1C
TGI: > 100 µM

compound: CC(C(=O)O)C1Nc2ccccc2NC1=O (centres undefined)
TGI: > 100 µM

compound: O=C1Nc2ccc(CN3CCOC3=O)cc2/C1=C/c1cc(CN2CCOCC2)c[nH]1
TGI: 73.9 µM

compound: CC(CC(C)[C@H]1CCC2[C@H]3C(CC(=O)[C@@]21C)[C@@]1(C)CCC(O)C[C@H]1C[C@@H]3O)C(=O)O (some centres undefined)
TGI: > 100 µM

compound: CC(=O)[O][Hg][CH2]C1(C)COC(C)([CH2][Hg][O]C(C)=O)CO1 (centres undefined)
TGI: 3.59 µM

compound: Cc1ncc([N+](=O)[O-])n1CCNC(=O)Cn1ccnc1[N+](=O)[O-]
TGI: > 100 µM

compound: CC(=O)[C@]12OC(=O)C3=C1[C@H](CC[C@@H]3C)[C@@H](C)C[C@H]2C=C(C)C
TGI: 16.8 µM

compound: N=C(N)SCCN1CCCCC1
TGI: 60.1 µM

compound: CC(=O)Oc1cc(/C=C/c2ccc(O)cc2)cc(OC(C)=O)c1
TGI: 48.7 µM

compound: COc1ccc2oc(=O)c(-c3csc(-c4ccccc4)n3)cc2c1
TGI: > 100 µM

compound: COCCNC1CCC(=O)c2[nH]c3ccccc3c21 (centres undefined)
TGI: > 100 µM

compound: OCc1ncc(-c2ccccc2)s1
TGI: > 100 µM

compound: CC1(C)CC2C(/C1=N/O)C1(C)CCCC2(C)C1O (centres undefined)
TGI: > 100 µM

compound: c1ccc2c(-c3cnn4cc(-c5ccc(N6CCNCC6)cc5)cnc34)ccnc2c1
TGI: 0.562 µM

compound: CC(=O)C(N=NC1CCC(S(=O)(=O)NB2N=CS2)CC1)C(=O)Nc1ccccc1C (centres undefined)
TGI: > 100 µM

compound: O=C(O)c1cc2cc(O)ccc2[nH]1
TGI: > 100 µM

compound: CC(=O)c1c2c(cc3c1CC1(C3)Cc3cc4c(c(C(C)=O)c3C1)CCCC4)CCCC2
TGI: 53.2 µM

compound: CC(C)=CC[C@H]1C[C@@]2(CC=C(C)C)C(=O)/C(=C(/O)c3ccccc3)C(=O)[C@](CC=C(C)C)(C2=O)C1(C)C
TGI: > 100 µM

###

tested on: MDA-MB-231 breast; assay: NCI tumour cell line growth inhibition, 48 h

molecule: N#CCN1CCN(CC#N)CCN(CC#N)CCN(CC#N)CC1
subjectOfTest: MDA-MB-231 breast
TGI: > 100 µM

molecule: COc1cc(/C=C2\CCCC3=C2N=C2SC(C)=CN2C3c2cc(OC)c(OC)c(OC)c2)cc(OC)c1OC (configuration not stated)
subjectOfTest: MDA-MB-231 breast
TGI: > 100 µM

molecule: O=C1c2ccccc2C(=O)c2sc(Nc3ccc(Cl)cc3)nc21
subjectOfTest: MDA-MB-231 breast
TGI: 7.38 µM

molecule: Nc1cc(N)cc(Cc2ccccc2)c1
subjectOfTest: MDA-MB-231 breast
TGI: > 100 µM

molecule: O=C(Nc1cc(C(F)(F)F)cc(C(F)(F)F)c1)Nc1ccc(OCc2nnc(-c3ccc(Cl)cc3)o2)c(F)c1
subjectOfTest: MDA-MB-231 breast
TGI: 4.93 µM

molecule: Nc1ncnc2c1ncn2[C@@H]1C[C@H](NO)[C@@H](O)[C@H]1O
subjectOfTest: MDA-MB-231 breast
TGI: > 100 µM

molecule: CC1(Cc2cc3c(cc2C2(c4ccc([N+](=O)[O-])cc4)OCCO2)OCO3)OCCO1
subjectOfTest: MDA-MB-231 breast
TGI: > 100 µM

molecule: COc1cc2c(c(OC)c1OC)C(=O)c1c-2n(CCCN=[N+]=[N-])c(=O)c2cc([N+](=O)[O-])ccc12
subjectOfTest: MDA-MB-231 breast
TGI: > 100 µM

molecule: CC1=NN(C(=O)CC(=O)Nc2ccc(Cl)cc2)C(=O)C1N=Nc1ccc(S(=O)(=O)c2ccc(N=NC3C(=O)N(C(=O)CC(=O)Nc4ccc(Cl)cc4)N=C3C)cc2)cc1 (configuration not stated)
subjectOfTest: MDA-MB-231 breast
TGI: > 100 µM

molecule: CSC(=NC#N)S/C=C/C(=O)c1cccc2ccccc12
subjectOfTest: MDA-MB-231 breast
TGI: 75.4 µM

molecule: Cn1nc(S(N)(=O)=O)s/c1=N/S(=O)(=O)c1ccc(N)cc1
subjectOfTest: MDA-MB-231 breast
TGI: > 100 µM

molecule: CCOC(=O)CNC(=O)CNC(=O)CNC(=O)CNNc1c(OCc2ccccc2)c(=O)c1=O
subjectOfTest: MDA-MB-231 breast
TGI: > 100 µM

molecule: COC(=O)C1=C(C(=O)OC)C(OO)(c2ccccc2)OC1=O (configuration not stated)
subjectOfTest: MDA-MB-231 breast
TGI: > 100 µM

molecule: O=C(Nc1nc(-c2ccccc2)cs1)c1cc(O)c(O)c(O)c1
subjectOfTest: MDA-MB-231 breast
TGI: 24.4 µM

molecule: O=C(/C=C/c1ccccc1Br)c1ccccc1
subjectOfTest: MDA-MB-231 breast
TGI: 27.5 µM

molecule: CN(C)CCN=C1Nc2ccccc2C(=O)N2CSCC12 (configuration not stated)
subjectOfTest: MDA-MB-231 breast
TGI: > 100 µM

molecule: CCOC(=O)C(C)c1nc2cc(C(F)(F)F)ccc2[nH]c1=O (configuration not stated)
subjectOfTest: MDA-MB-231 breast
TGI: > 100 µM

molecule: C=CC[C@@]12CCC(=O)C=C1CCCC2=O
subjectOfTest: MDA-MB-231 breast
TGI: > 100 µM

molecule: COC(=O)/C=C/C(=O)Nc1cc(Cl)c(Cl)cc1CC(=O)N(C)[C@H]1CCCC[C@@H]1N1CCCC1
subjectOfTest: MDA-MB-231 breast
TGI: 28.9 µM

molecule: COc1ccc(C(c2cc(OC)c(OC)c(OC)c2)N2C(=O)CCC2C(=O)O)cc1 (configuration not stated)
subjectOfTest: MDA-MB-231 breast
TGI: > 100 µM

molecule: CC(C)c1ccc(/C=N/N=C(N)N)cc1
subjectOfTest: MDA-MB-231 breast
TGI: 21.5 µM

molecule: COc1ccc2c(c1)C1c3ccccc3CCN1CCC2 (configuration not stated)
subjectOfTest: MDA-MB-231 breast
TGI: 84.7 µM

###

Measured GI50 values are reported for all entries that follow.
test system: KM12 colon; test: NCI tumour cell line growth inhibition, 48 h

molecule: Clc1ccc(-c2nc(C(Cl)Cl)nc3cc(-c4ccccc4)nn23)cc1
GI50: 0.884 µM
//
molecule: CSC(=NC#N)S/C=C/C(=O)c1cccc2ccccc12
GI50: 29.1 µM
//
molecule: COc1ccc(C2SCC(=O)N2NC(=O)C(O)c2ccccc2)cc1 (configuration not stated)
GI50: > 100 µM
//
molecule: CC1=C/C(O)CC(=O)Cc2nc(co2)C(=O)N2CCC=C2C(=O)OC(C(C)C)C(C)/C=C\C(=O)NC/C=C\1 (configuration not stated)
GI50: 15.1 µM
//
molecule: O=C([CH-]C(=O)c1ccccc1)c1ccccc1.[CH3-].[CH3-].[CH3-].[Sn+4]
GI50: 18.1 µM
//
molecule: NC(=S)N/N=C/c1ccc(OC(=O)COc2ccccc2)cn1
GI50: 3.16 µM
//
molecule: O=C(O)c1cc2cc(O)ccc2[nH]1
GI50: > 100 µM

###

tested on: KM12 colon; assay: NCI tumour cell line growth inhibition, 48 h
endpointName: TGI (µM)

compound: Cc1cc(Cl)cc2c1NC(=O)C2(O)CC(=O)c1ccc(F)cc1 (stereo not given)
subjectOfTest: KM12 colon
endpointName: TGI
censoringSign: >
observedValue: 100
//
compound: CC(=O)c1c2c(cc3c1CC1(C3)Cc3cc4c(c(C(C)=O)c3C1)CCCC4)CCCC2
subjectOfTest: KM12 colon
endpointName: TGI
censoringSign: >
observedValue: 100
//
compound: CN(N=O)C(=O)Nc1ccc(C(=O)O)cc1
subjectOfTest: KM12 colon
endpointName: TGI
censoringSign: >
observedValue: 100
//
compound: CC(C)(C)OC(=O)NCC(=O)N(CCc1ccc(Cl)c(Cl)c1)CCN1CCCC1
subjectOfTest: KM12 colon
endpointName: TGI
censoringSign: =
observedValue: 32.6
//
compound: N#CCCN(CCCN(C(=O)Nc1ccc(NC(=O)N(CCCN(CCC#N)C(N)=O)c2ccccc2)cc1)c1ccccc1)C(N)=O
subjectOfTest: KM12 colon
endpointName: TGI
censoringSign: >
observedValue: 100
//
compound: C/C=C/C=C/CCCCCCCCCCCCC[C@]1(OC)C=CC(CC(=O)OC)OO1 (stereo not given in full)
subjectOfTest: KM12 colon
endpointName: TGI
censoringSign: =
observedValue: 36.3
//
compound: CC(C)(C)c1cc(-c2c3nc(c(-c4cc(C(C)(C)C)cc(C(C)(C)C)c4)c4ccc([nH]4)c(-c4cc(C(C)(C)C)cc(C(C)(C)C)c4)c4nc(c(-c5cc(C(C)(C)C)cc(C(C)(C)C)c5)c5ccc2[nH]5)C=C4)C=C3)cc(C(C)(C)C)c1
subjectOfTest: KM12 colon
endpointName: TGI
censoringSign: >
observedValue: 100
//
compound: O=S1(=O)c2ccccc2-c2nccc3ccnc1c23
subjectOfTest: KM12 colon
endpointName: TGI
censoringSign: >
observedValue: 100
//
compound: O=C1O/C(=C(/Cl)c2c3ccccc3cc3ccccc23)c2ccccc21
subjectOfTest: KM12 colon
endpointName: TGI
censoringSign: =
observedValue: 17.3
//
compound: COc1ccc(OC)c([N+](=O)[O-])c1-c1nc2sc(C)c(C)n2c1/C=N/N=C(N)N
subjectOfTest: KM12 colon
endpointName: TGI
censoringSign: =
observedValue: 50.9
